pIC50: −log10 of the molar value.
Answer each item with its documented pIC50.

Enter reported pIC50 observed with CYP3A4(BFC) (Homo sapiens, UniProt P08684) for Nc1ncnc2[nH]cc(C(=O)c3ccc(Nc4ccc(C5CC5)nc4)nc3F)c12 [Compound P-4048]
Sequence (P08684 whole entry): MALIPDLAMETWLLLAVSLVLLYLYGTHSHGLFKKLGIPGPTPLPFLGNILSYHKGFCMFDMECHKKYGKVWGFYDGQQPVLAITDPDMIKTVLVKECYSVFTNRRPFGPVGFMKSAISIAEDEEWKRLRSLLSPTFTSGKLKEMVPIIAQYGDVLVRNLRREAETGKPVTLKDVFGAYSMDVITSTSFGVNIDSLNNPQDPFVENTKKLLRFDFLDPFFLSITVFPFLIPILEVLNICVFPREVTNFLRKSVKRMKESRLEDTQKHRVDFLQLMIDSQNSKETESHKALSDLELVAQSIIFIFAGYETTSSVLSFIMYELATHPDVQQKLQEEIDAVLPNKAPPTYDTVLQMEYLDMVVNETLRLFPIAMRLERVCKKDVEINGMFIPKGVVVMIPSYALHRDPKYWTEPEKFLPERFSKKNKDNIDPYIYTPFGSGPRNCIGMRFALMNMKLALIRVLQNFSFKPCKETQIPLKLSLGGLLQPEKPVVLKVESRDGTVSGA
< 5.00

Please tell me: pIC50 of Fc1nc(NC2CCC(F)(F)CC2)ccc1Cc1c[nH]c2ncnc(NC3CC3)c12 [Compound P-4129] , system CYP3A4(BFC) (Homo sapiens, UniProt P08684)?
> 5.30

# returns recorded pIC50 (system: CYP3A4(BFC) (Homo sapiens, UniProt P08684)) for O=C(c1ccc(Nc2ccc(C3CC3)nc2)nc1F)c1c[nH]c2ncnc(NCC(F)(F)F)c12 [Compound P-4090]
< 5.00

// map Cc1cnc2[nH]cc(Cc3cnc(Nc4ccc(C(F)(F)F)nc4)nc3)c2c1 [Compound P-3018] to recorded pIC50 (system: CYP3A4(BFC) (Homo sapiens, UniProt P08684))
> 5.30

Enter reported pIC50 observed with CYP3A4(BFC) (Homo sapiens, UniProt P08684) for Cc1ccc(Nc2ccc(C(=O)c3c[nH]c4ncnc(NCC(F)(F)F)c34)c(F)n2)cn1 [Compound P-4112]
< 5.00

Value wanted: pIC50 (CYP3A4(BFC) (Homo sapiens, UniProt P08684)) of entry CCNc1ncnc2[nH]cc(C(=O)c3ccc(NC4CCC(F)(F)CC4)nc3Cl)c12 [Compound P-4050]
< 5.00

Find the measured pIC50: item CCc1ccc(Nc2ccc(C(=O)c3c[nH]c4ncnc(NCCOC)c34)c(F)n2)cn1 [Compound P-4119] , target or system CYP3A4(BFC) (Homo sapiens, UniProt P08684).
< 5.00

Recorded pIC50 for COc1ccc(Nc2ccc(C(=O)c3c[nH]c4ncnc(NCC5CCCO5)c34)c(F)n2)cn1 (centres unmarked) [Compound P-4073] with CYP3A4(BFC) (Homo sapiens, UniProt P08684), please?
< 5.00

* * *

Provide the recorded IC50 for the entries that follow.
targetOfAssay: BCR-NTRK2 BaF3 cells (Homo sapiens, UniProt Q16620)
Construct: fused on or other part: P11274 (Breakpoint cluster region protein)
Sequence (Q16620 538-807): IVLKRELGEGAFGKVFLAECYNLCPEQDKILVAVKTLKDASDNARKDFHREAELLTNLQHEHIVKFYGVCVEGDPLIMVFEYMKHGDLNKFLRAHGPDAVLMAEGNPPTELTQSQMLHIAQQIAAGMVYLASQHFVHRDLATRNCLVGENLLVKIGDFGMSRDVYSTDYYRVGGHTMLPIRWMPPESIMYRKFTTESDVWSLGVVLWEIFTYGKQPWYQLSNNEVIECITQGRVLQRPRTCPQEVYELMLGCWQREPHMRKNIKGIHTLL
experimentNotes: BaF3 BCR-NTRK2 cell proliferation assay (ATPlite)
conditionContext: read-out: Inhibition of Cell Proliferation IC50, BCR/BaF3 TrkB
Procedure: Compounds are assessed in a variety of cell based assays. […] On day 1, cells are counted, then centrifuged in a conical tube for 5 minutes at 1000 rpm. […] On day 5, ATPlite 1 step Luminescence Assay System (Perkin Elmer #6016739) is brought to room temperature along with the cell cultures. […] The cells are incubated at room temperature for 10 minutes, then luminescence is read on Safire reader. […]

# query: IC50 of entry CCOc1ccc(Nc2ccc(Cc3c[nH]c4ncnc(C)c34)c(F)n2)cn1
< 10 nM

// returns reported IC50 for input Cc1cnc2[nH]cc(C(=O)c3ccc(Nc4ccc(C)nc4)nc3F)c2c1
< 100 nM

Please report the recorded IC50 for CCOc1ncnc2[nH]cc(Cc3ccc(Nc4cccnc4)nc3F)c12 .
< 1000 nM

Look up IC50 for this compound: FC1(F)CCC(Nc2ncc(Cc3c[nH]c4ncc(Cl)cc34)cn2)CC1
< 10000 nM

// IC50 lookup, key: CCOc1ccc(Nc2ncc(Cc3c[nH]c4ncc(C)cc34)cn2)cc1
< 100 nM

What IC50 value was documented for this compound, CCCNc1ncnc2[nH]cc(C(=O)c3ccc(Nc4ccc(OC)nc4)nc3F)c12 ?
< 10 nM

Record request: IC50 value, item CCNc1ncnc2[nH]cc(C(=O)c3ccc(Nc4ccc(CC)nc4)nc3F)c12
< 10 nM

Which measured IC50 value corresponds to O=C(c1ccc(NC2CCC(F)(F)CC2)nc1F)c1c[nH]c2ncnc(NCC(F)(F)F)c12 ?
< 10 nM
